Where do the numbers come from? From patent US10131670B2.

- target.under.test: UniProt P13569
- experimental.protocol: Ussing Chamber Electrophysiology Assay of CFTR Potentiation in CF Bronchial Epithelial Cells
- condition.summary: primary CF hBE cells, short-circuit current, scaled to DMSO (0%) and positive control potentiator (100%)
metric.name: EC50 (nM)
Answer in nM, number only, no unit symbol.

Past entries and their recorded results:
compound | EC50, nM
CCC(c1cn(-c2ccc(F)cc2F)nn1)c1cc(-c2cnc(C(F)(F)F)nc2)c2c(N)ncnn12 (single isomer, unassigned) [Example 59] | 115
CCC(c1cn(-c2ccccc2F)nn1)c1c(C#N)c(-c2cnc(C(F)(F)F)nc2)c2c(N)ncnn12 (stereo not shown) [Example 25] | 7.86

Q. Look at this compound and give its reported EC50. CC(c1cnn(-c2ccccc2F)c1)c1c(C#N)c(-c2cnc(C(F)F)nc2)c2c(N)ncnn12 (single isomer, unassigned) [Example 96]
A. 0.4

Q. Try CCC(c1cn(-c2ccccc2F)nn1)c1c(C#N)c(-c2cnc(C(F)(F)F)nc2)c2c(N)ncnn12 (single isomer, unassigned) [Example 4] next.
A. 20.5

Q. Moving on to the next compound: CCC(c1cnn(-c2ccccc2F)c1)n1nc(-c2cnc(C(F)(F)F)nc2)c2c(N)ncnc21 (single isomer, unassigned) [Example 87]
A. 1.53

Q. What about CCC(c1cn(-c2ccccc2F)nn1)c1cc(-c2cnc(C(F)(F)F)nc2)c2c(N)ncnn12 (single isomer, unassigned) [Example 57] ?
A. 2
